Origin of the recorded values: patent US12595269B2

# method: Pharmacokinetic and brain penetration study, intravenous and oral administration in rats
# Format: in vivo
# protocol_conditions: rat, plasma, iv, 0.5 mg/kg, IV, 0.5 mg/kg (Table 8), read-out: Vss

# compound, scale_unit, Vd
rows = [
    ("Clc1ccc(C23CNC(CO2)C3)cc1Cl (stereo not shown) [522A]", "L/kg", 0.411),
]

====

Listed here are molecules together with their documented fraction unbound at 5 h, 0.5 µM.
# method: Plasma protein binding by equilibrium dialysis, human plasma
# Format: in vitro ADME
# protocol_conditions: pH 7.4

# molecule, qualifier_symbol, fraction unbound at 5 h, 0.5 µM
records = [
    ("Clc1ccc(C23CNC(CO2)C3)cc1Cl (stereo not drawn) [522A]", "=", 0.021),
    ("Clc1ccc([C@@]23CN[C@@H](CO2)C3)cc1Cl (single isomer, unassigned) [518A]", "=", 0.0143),
    ("CNC(C)Cc1ccc2c(c1)OCO2 (stereo not drawn) [MDMA, reference compound]", ">", 0.5),
]

====

# measured_target: CYP2C8 (Homo sapiens)
# Sequence (P10632 1-490): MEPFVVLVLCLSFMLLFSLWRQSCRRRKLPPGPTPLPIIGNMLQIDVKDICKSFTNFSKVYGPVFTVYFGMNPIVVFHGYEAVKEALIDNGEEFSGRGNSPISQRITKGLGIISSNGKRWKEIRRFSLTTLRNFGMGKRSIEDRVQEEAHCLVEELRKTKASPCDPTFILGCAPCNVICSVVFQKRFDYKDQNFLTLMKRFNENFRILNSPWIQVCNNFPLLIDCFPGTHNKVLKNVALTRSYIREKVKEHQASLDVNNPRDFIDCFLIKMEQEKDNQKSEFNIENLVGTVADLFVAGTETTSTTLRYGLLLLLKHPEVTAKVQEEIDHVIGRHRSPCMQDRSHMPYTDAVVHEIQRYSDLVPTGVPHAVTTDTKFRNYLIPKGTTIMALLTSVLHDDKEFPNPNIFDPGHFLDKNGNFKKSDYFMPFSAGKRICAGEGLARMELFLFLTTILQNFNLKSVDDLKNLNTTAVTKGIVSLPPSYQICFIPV
# method: CYP450 inhibition, CYP2C8 Baculosomes, Vivid DBOMF substrate
# protocol_conditions: recombinant human CYP2C8
pIC50: −log10 of the molar value.

# compound, pIC50
records = [
    ("Clc1ccc(C23CNC(CO2)C3)cc1Cl (stereo not shown) [522A]", "< 4.30"),
]

====

# measured_target: CYP2D6 (Homo sapiens)
# Construct: host or cells: recombinant microsomes
# Sequence (P10635 whole entry): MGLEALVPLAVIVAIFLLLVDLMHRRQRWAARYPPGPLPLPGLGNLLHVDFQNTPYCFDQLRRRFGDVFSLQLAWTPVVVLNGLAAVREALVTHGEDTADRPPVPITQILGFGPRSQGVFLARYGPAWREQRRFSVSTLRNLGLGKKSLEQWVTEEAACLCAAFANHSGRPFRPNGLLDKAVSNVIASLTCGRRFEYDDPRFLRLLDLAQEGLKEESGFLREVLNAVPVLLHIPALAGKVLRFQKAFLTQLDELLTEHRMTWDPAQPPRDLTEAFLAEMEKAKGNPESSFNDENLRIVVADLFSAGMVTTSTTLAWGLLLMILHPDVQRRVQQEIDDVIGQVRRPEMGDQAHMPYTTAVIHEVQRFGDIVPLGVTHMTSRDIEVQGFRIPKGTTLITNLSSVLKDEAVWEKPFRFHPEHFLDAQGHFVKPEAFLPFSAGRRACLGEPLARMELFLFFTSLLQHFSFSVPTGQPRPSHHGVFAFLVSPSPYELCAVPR
# method: CYP450 inhibition, fluorescent probe, recombinant microsomes: CYP2D6
# Type: in vitro ADME
pIC50: −log10 of the molar value.

# compound, measured_target, pIC50
data = [
    ("CNC(C)Cc1ccc2c(c1)OCO2 (stereo not shown) [MDMA, reference compound]", "CYP2D6 (Homo sapiens)", 5.80),
]

====

# measured_target: CYP3A4 (Homo sapiens, UniProt P08684)
# Construct: purchased Life Technologies P2377; host or cells: Baculosomes
# Sequence (P08684 whole entry): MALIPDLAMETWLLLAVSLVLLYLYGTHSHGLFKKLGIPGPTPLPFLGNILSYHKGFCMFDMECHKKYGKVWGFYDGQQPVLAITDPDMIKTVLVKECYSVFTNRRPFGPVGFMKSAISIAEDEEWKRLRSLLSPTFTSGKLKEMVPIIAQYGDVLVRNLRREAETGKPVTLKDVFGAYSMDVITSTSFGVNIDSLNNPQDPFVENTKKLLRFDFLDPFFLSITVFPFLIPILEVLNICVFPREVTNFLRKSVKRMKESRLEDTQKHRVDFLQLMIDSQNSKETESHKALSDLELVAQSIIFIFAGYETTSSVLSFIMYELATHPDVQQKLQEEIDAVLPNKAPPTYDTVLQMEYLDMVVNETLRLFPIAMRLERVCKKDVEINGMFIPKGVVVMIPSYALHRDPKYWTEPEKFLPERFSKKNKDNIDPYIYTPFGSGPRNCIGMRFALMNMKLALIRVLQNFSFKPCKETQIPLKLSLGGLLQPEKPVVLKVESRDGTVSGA
# method: CYP450 inhibition, fluorescent probes 7BQ and DBOMF: CYP3A4
# Type: in vitro ADME
# protocol_conditions: recombinant human CYP3A4, substrate 7BQ; read-out: CYP450 Inhibition (IC50), CYP3A4 (7BQ)
pIC50: −log10 of the molar value.

# compound, pIC50
measured = [
    ("Clc1ccc(C23CNC(CO2)C3)cc1Cl (stereo not shown) [522A]", "< 4.30"),
]

====

# method: Pharmacokinetic and brain penetration study, intravenous and oral administration in rats
# Assay type: in vivo
# protocol_conditions: rat, plasma, iv, 0.5 mg/kg, IV, 0.5 mg/kg (Table 9), read-out: Vss
# Description: Methods and Procedure: The study was conducted in agreement with procedures to assure data integrity and GLP principles. Three experimental groups, as outlined below, were included in the study: […] Study samples, CS, QC, and blanks were spiked with an internal standard (IS), to improve the precision of the assay. Study samples were analyzed together with CS, QC and blank samples (including double blanks). […]

# compound, Vd, L/kg
measured = [
    ("Clc1ccc(C23CNC(CO2)C3)cc1Cl (stereo not shown) [522A]", 1.48),
]

====

# measured_target: CYP2C9 (Homo sapiens, UniProt P11712)
# Construct: host or cells: recombinant microsomes
# Sequence (P11712 whole entry): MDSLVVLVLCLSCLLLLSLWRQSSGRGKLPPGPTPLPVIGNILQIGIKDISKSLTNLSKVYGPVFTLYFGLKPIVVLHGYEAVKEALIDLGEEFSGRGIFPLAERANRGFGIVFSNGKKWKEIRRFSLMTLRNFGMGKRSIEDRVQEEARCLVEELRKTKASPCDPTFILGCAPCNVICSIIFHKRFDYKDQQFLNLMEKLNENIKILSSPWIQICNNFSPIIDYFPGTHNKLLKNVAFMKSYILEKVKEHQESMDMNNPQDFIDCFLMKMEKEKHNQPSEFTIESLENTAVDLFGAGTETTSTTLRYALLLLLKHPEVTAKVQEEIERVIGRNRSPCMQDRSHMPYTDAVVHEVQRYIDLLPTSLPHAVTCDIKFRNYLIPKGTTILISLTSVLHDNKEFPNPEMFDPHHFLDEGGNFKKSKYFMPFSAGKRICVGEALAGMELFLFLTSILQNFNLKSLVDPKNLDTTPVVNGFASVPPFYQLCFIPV
# method: CYP450 inhibition, fluorescent probe, recombinant microsomes: CYP2C9
# Type: in vitro ADME
# protocol_conditions: human, recombinant microsomes expressing CYP2C9
test_readout: IC50 at 10 min (µM)

# compound, measured_target, observed
measured = [
    ("CNC(C)Cc1ccc2c(c1)OCO2 (stereo not shown) [MDMA, reference compound]", "CYP2C9 (Homo sapiens, UniProt P11712)", 50),
]

====

# method: In vitro intrinsic clearance in rat liver microsomes
# Assay type: in vitro ADME
# protocol_conditions: pH 7.4, read-out: Intrinsic clearance (μL/min/mg protein) rat

# molecule, scale_unit, microsomal CLint at 0.5 µM
rows = [
    ("CNC(C)Cc1ccc2c(c1)OCO2 (stereo not shown) [MDMA, reference compound]", "µL/min/mg", 171),
    ("Clc1ccc([C@@]23CN[C@@H](CO2)C3)cc1Cl (single isomer, unassigned) [518A]", "µL/min/mg", 268),
    ("Clc1ccc(C23CNC(CO2)C3)cc1Cl (stereo not shown) [522A]", "µL/min/mg", 83),
    ("Clc1ccc([C@]23CN[C@H](CO2)C3)cc1Cl (single isomer, unassigned) [516A]", "µL/min/mg", 167),
]
